Parameter: Ki. Scope: all listed entries.
target: UniProt Q9WTR4; test: Inhibition of high affinity uptake by the norepinephrine transporter from rat synaptosomal nerve endings by using [3H]NE as radioligand
Sequence (Q9WTR4 whole entry): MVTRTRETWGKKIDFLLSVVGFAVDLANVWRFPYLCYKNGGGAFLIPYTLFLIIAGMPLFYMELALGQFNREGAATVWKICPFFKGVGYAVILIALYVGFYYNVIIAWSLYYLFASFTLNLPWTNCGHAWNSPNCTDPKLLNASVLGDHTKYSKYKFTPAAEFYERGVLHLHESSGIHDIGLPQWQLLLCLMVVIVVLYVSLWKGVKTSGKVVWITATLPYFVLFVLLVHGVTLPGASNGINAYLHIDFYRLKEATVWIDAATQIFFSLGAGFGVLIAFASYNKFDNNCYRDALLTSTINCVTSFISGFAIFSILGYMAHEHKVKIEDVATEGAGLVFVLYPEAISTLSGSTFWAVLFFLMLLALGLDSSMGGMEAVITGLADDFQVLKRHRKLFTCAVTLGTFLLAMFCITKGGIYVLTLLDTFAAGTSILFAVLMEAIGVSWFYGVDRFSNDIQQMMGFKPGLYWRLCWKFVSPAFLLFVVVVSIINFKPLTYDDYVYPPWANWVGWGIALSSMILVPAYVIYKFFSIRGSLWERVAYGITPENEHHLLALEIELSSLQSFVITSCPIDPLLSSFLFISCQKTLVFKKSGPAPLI
Answer format: number, then unit.

Completed entries (count: 5):
- compound: "CC(C)NC(=O)C[S+]([O-])CC1CN(C)CCC1c1ccc(Cl)cc1 (stereo unspecified)"
  reported endpoint: "Ki"
  result value: "20 nM"
- compound: "COC(=O)CSCC1CNCCC1c1ccc(Cl)cc1 (stereo unspecified)"
  reported endpoint: "Ki"
  result value: "0.56 nM"
- compound: "CN1CCC(c2ccc(Cl)cc2)C(CSCC(=O)N(C)C)C1 (stereo unspecified)"
  reported endpoint: "Ki"
  result value: "27 nM"
- compound: "Cc1noc(C[S+]([O-])CC2CN(C)CCC2c2ccc(Cl)cc2)n1 (stereo unspecified)"
  reported endpoint: "Ki"
  result value: "218 nM"
- compound: "CN1CCC(c2ccc(Cl)cc2)C(CI)C1 (stereo unspecified)"
  reported endpoint: "Ki"
  result value: "424 nM"

Moving on to the next compound.
Provide measured Ki on UniProt Q9WTR4 for CNC(=O)CSCC1CN(C)CCC1c1ccc(Cl)cc1 (stereo unspecified) please.
25 nM

* * *

biological target: UniProt P23977; assay: Inhibition of high affinity uptake by the dopamine transporter from rat synaptosomal nerve endings by using [3H]DA as radioligand
Sequence (P23977 whole entry): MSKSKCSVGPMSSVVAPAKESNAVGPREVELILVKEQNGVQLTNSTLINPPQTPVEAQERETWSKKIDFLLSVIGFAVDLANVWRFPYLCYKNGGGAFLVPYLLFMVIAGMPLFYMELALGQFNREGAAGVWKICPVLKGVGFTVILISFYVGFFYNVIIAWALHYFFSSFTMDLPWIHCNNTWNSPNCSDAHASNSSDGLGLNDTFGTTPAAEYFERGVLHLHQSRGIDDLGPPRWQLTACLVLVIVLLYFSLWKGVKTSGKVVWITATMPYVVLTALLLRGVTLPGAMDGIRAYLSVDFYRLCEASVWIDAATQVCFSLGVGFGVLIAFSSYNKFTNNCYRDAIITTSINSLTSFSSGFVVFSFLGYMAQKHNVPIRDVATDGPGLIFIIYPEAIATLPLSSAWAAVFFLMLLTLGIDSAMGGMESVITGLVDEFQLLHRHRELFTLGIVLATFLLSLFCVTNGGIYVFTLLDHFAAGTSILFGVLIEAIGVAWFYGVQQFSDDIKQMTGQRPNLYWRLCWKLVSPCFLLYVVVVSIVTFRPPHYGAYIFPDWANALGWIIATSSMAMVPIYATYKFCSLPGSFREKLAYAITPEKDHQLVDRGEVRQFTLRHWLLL
Parameter: Ki. Scope: all listed entries.
Numeric only. Scale: nM

- molecule: "Cc1noc(CSCC2CN(C)CCC2c2ccc(Cl)cc2)n1 (configuration not stated)"
  quantity unit: "nM"
  result value: 126
- molecule: "CN1CCC(c2ccc(Cl)cc2)C(CSCC(=O)N(C)C)C1 (configuration not stated)"
  quantity unit: "nM"
  result value: 116
- molecule: "NC(=O)CSCC1CNCCC1c1ccc(Cl)cc1 (configuration not stated)"
  quantity unit: "nM"
  result value: 114
- molecule: "CN1CCC(c2ccc(Cl)cc2)C(CSCCOC(=O)c2ccccc2)C1 (configuration not stated)"
  quantity unit: "nM"
  result value: 68
- molecule: "CN1CCC(c2ccc(Cl)cc2)C(CSCC(=O)NO)C1 (configuration not stated)"
  quantity unit: "nM"
  result value: 85

Supply recorded Ki for NC(=O)C[S+]([O-])CC1CNCCC1c1ccc(Cl)cc1 (configuration not stated) here.
108

Supply recorded Ki for CNC(=O)C[S+]([O-])CC1CN(C)CCC1c1ccc(Cl)cc1 (configuration not stated) here.
164
